Below, each entry is listed alongside its reported pKd.
Biological target: T1, PUF4 RNA-binding domain (Saccharomyces cerevisiae, UniProt P25339 537-888)
T1 sequence: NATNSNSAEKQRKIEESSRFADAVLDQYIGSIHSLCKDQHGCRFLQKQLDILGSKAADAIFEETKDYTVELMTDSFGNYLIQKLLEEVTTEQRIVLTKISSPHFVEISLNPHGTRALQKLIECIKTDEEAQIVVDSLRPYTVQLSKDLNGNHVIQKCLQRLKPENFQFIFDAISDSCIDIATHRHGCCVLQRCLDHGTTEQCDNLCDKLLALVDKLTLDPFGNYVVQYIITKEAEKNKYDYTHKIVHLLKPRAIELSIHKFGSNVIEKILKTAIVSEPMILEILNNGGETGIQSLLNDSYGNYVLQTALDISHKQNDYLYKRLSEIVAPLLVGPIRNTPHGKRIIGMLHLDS
Assay: Mg; RNA-MaP; 20 mM Na-HEPES pH 7.4, 30 mM KOAc, 0.75 mM MgCl2, 0.1% Tween-20, 5% glycerol, 0.1 mg/mL BSA, 2 mM DTT; 25 C; 0.0125-409.6 nM protein
Conditions: tags: N-His6-TEV cleaved; C-SNAP kept, Cy3B-labelled; label: tethered on chip by stalled RNA polymerase
pKd: −log10 of the molar value.
Measured endpoint: pKd

[[record]]
binder = "Ie_S2_P5E.1_K5.1_C5.1_H5.1_A5.1_[+6CTC]_F5.1_T5.1 (ssRNA) RNA: UUUGAUUAAUAUGAUAUCGUUCUUUCUUGUAUUCUCAUUAUUCUUUCUCGAUAUCAUAUUAAUCUUU"
measured_endpoint = "pKd"
reported_result = 7.73

[[record]]
binder = "Ic_S4_P4E.1_K4.1_C4.1_H4.1_A4.1_[T5A]_[A6C]_F4.1_[T8C]_[A9T]_T4.1 (ssRNA) RNA: UUUGACAACUGAUCGUUCUUUCUUGUAACUCUUUCUUUCUCGAUCAGUUGUCUUU"
measured_endpoint = "pKd"
reported_result = 7.14

[[record]]
binder = "UCUCUUUGUAUGCUUCUCUU (ssRNA) [Ic_S1_P3E.1_K3.1_C3.1_H3.1_A3.1_[A6G]_F3.1_[T7C]_[A8T]_T3.1]"
measured_endpoint = "pKd"
reported_result = 6.36

[[record]]
binder = "UCUCUUAUUGUAUAUAGUUCUCUU (ssRNA) [Id_ii_S1_P3E.2_K3.1_C3.2_[C-2A]_H3.1_A3.1_F3.1_T3.2_[T9G]_[A10T]]"
measured_endpoint = "pKd"
reported_result = 8.20

[[record]]
binder = "UCUCUUAUUGUAUAUUACCUCUCUU (ssRNA) [Id_ii_S1_P4E.2_K4.1_C4.2_[C-2A]_H4.1_A4.1_F4.1_T4.2_[G10C]_[T11C]]"
measured_endpoint = "pKd"
reported_result = 9.10

